B1: TET3 peptide 1705-1720 (methylcytosine dioxygenase TET3), 16-mer library wild type / USP8 rhodanese domain (ubiquitin carboxyl-terminal hydrolase 8, residues 174-317) (parent)
chain 1: GLALWEAKMKQLAERA
chain 2: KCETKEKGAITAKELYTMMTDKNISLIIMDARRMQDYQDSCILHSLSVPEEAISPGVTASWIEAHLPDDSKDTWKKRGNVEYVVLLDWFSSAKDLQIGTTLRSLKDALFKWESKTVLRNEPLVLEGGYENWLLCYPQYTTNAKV

# Variants of: B1
# Test method notes: peptide-phage display deep mutational scan (M13, 16-mer library, displayed with a C-terminal GGGSG linker encoded by the 3' flank) selected against the GST-tagged USP8 rhodanese domain, four rounds; NGS counts summed over selection …
# Assay setup: with USP8 rhodanese domain (ubiquitin carboxyl-terminal hydrolase 8, residues 174-317), 10 µg GST-bait on MaxiSorp, pre-cleared on GST, 2 h at 4 °C, five washes with 0.05% Tween 20 in PBS, not graded, scale: average over two replicas of the peptide's fractional NGS count
Experimental readout: screen value

>>> measured_result("chain 1 GLALWEAKMKQLQERA [chain 1 A13Q]")
0.00219
>>> measured_result("chain 1 GLAAWEAKMKQLAERA [chain 1 L4A]")
"9.18e-05"
>>> measured_result("chain 1 GLALWEAKQKQLAERA [chain 1 M9Q]")
"3.16e-05"
>>> measured_result("chain 1 GLALWEVKMKQLAERA [chain 1 A7V]")
"5.18e-05"
>>> measured_result("chain 1 GLALWEAKMKQLAERG [chain 1 A16G]")
"6.5e-05"
>>> measured_result("chain 1 GLALWEYKMKQLAERA [chain 1 A7Y]")
"2.3e-05"
>>> measured_result("chain 1 GLALWEAKMKQRAERA [chain 1 L12R]")
"1.15e-05"
>>> measured_result("chain 1 GLALWEAKMKQLTERA [chain 1 A13T]")
"3.6e-05"
>>> measured_result("chain 1 GLALWEAKYKQLAERA [chain 1 M9Y]")
"3.9e-05"
>>> measured_result("chain 1 GLALWEAKMKQLAWRA [chain 1 E14W]")
"4.33e-06"
>>> measured_result("chain 1 GLALWEMKMKQLAERA [chain 1 A7M]")
0.000234

Entry source: paper PMC12057046
